Please respond with reported IC50 for every item in the list.
target: T1, human VEGFA165 (human, UniProt P15692-4 27-191); experiment: competitive ELISA, coated VEGFA, competitor VEGFR2-ECD-Fc 1 nM
T1 construct: Bought protein from two suppliers, treated as one molecule; the supplier is named under assay; also called antigen VEGFA
T1 sequence (P15692 other isoform, or with tags, fused parts or gaps limits assumed): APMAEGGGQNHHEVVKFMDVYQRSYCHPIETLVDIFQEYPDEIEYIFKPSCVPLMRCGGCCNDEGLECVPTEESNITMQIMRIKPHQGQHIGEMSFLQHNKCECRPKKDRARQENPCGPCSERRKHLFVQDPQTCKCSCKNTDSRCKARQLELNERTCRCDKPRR
The answer should read as a number with its unit following.

Challenge: Find the recorded IC50 belonging to 2V15-9S (VHH, Tandem bivalent nanobody) QLQLVESGGGSVQPGGSLRLSCEVSGRTFASYTMGWFRQAPGKEREFVVAISKGGYKYDSVSLEARFTISKDNTKNTVYLQMNSLKPEDTAVYYCAGTRAYGSSRLRLAETYEYWGQGTQVTVSSSSSSSSSSSQLQLVESGGGSVQPGGSLRLSCEVSGRTFASYTMGWFRQAPGKEREFVVAISKGGYKYDSVSLEARFTISKDNTKNTVYLQMNSLKPEDTAVYYCAGTRAYGSSRLRLAETYEYWGQGTQVTVSS and report it.
Response given: 3.53 nM

Challenge: Find the recorded IC50 belonging to 2V15-9GS (VHH, Tandem bivalent nanobody) QLQLVESGGGSVQPGGSLRLSCEVSGRTFASYTMGWFRQAPGKEREFVVAISKGGYKYDSVSLEARFTISKDNTKNTVYLQMNSLKPEDTAVYYCAGTRAYGSSRLRLAETYEYWGQGTQVTVSSGGGGSGGGSQLQLVESGGGSVQPGGSLRLSCEVSGRTFASYTMGWFRQAPGKEREFVVAISKGGYKYDSVSLEARFTISKDNTKNTVYLQMNSLKPEDTAVYYCAGTRAYGSSRLRLAETYEYWGQGTQVTVSS and report it.
Response given: 3.13 nM

Challenge: Find the recorded IC50 belonging to 2V15-39GS (VHH, Tandem bivalent nanobody) QLQLVESGGGSVQPGGSLRLSCEVSGRTFASYTMGWFRQAPGKEREFVVAISKGGYKYDSVSLEARFTISKDNTKNTVYLQMNSLKPEDTAVYYCAGTRAYGSSRLRLAETYEYWGQGTQVTVSSGGGGSGGGSGGGGSGGGGSGGGGSGGGGSGGGGSGGGGSQLQLVESGGGSVQPGGSLRLSCEVSGRTFASYTMGWFRQAPGKEREFVVAISKGGYKYDSVSLEARFTISKDNTKNTVYLQMNSLKPEDTAVYYCAGTRAYGSSRLRLAETYEYWGQGTQVTVSS and report it.
Response given: 1.74 nM

Challenge: Find the recorded IC50 belonging to 2V15-20S (VHH, Tandem bivalent nanobody) QLQLVESGGGSVQPGGSLRLSCEVSGRTFASYTMGWFRQAPGKEREFVVAISKGGYKYDSVSLEARFTISKDNTKNTVYLQMNSLKPEDTAVYYCAGTRAYGSSRLRLAETYEYWGQGTQVTVSSSSSSSSSSSSSSSSSSSSSSQLQLVESGGGSVQPGGSLRLSCEVSGRTFASYTMGWFRQAPGKEREFVVAISKGGYKYDSVSLEARFTISKDNTKNTVYLQMNSLKPEDTAVYYCAGTRAYGSSRLRLAETYEYWGQGTQVTVSS and report it.
Response given: 4.38 nM
